Measured values drawn from patent US11466044B2 for this set.

tested on: P aeruginosa; experiment: MIC by broth microdilution, P aeruginosa isolates; format: cell-based, Pseudomonas aeruginosa; conditions: strain AG220 Pseudomonas aeruginosa ATCC27853; read-out: MIC AG220 P. aerugin
Counter-ions that a name gives are not always drawn.
observation-type: MIC

molecule	observation-type	experimental-result
NCC1OC(OC2C(N)CC(N)C(O)C2OC2OC(CO)C(OC3OC(CN)C(O)C(O)C3N)C2O)CC(O)C1O (stereo not shown) [Compound 173, 2′-Deamino-neomycin acetate salt]	MIC	> 64 µg/mL
CCC(O)C1O[C@H](O[C@@H]2C(N)C[C@@H](N)C(O)[C@H]2O[C@@H]2O[C@H](CO)[C@H](O[C@H]3O[C@@H](CN)[C@@H](O)C(O)C3N)C2O)C(N)[C@@H](O)[C@@H]1O (stereo partly shown) [Compound 192]	MIC	> 64 µg/mL
CNC1C(OC2C(N)CC(N)C(O)C2OC2OC(CO)C(OC3OC(CN)C(O)C(O)C3N)C2O)OC(CO)C(O)C1O (stereo not shown) [Compound 115, 2′-N-Methyl-paromomycin acetate salt]	MIC	> 64 µg/mL
CCNC1C(OC2C(N)CC(N)C(O)C2OC2OC(CO)C(OC3OC(CN)C(O)C(O)C3N)C2O)OC(CN)C(O)C1O (stereo not shown) [Compound 172, 2′-N-Ethyl-neomycin acetate salt]	MIC	> 32 µg/mL
NC[C@@H]1O[C@H](O[C@H]2[C@@H](O)[C@H](O[C@@H]3[C@@H](O)[C@H](N)C[C@H](N)[C@H]3O[C@H]3O[C@H](CO)[C@@H](O)[C@H](O)[C@H]3N)O[C@@H]2CO)[C@H](N)[C@@H](O)[C@@H]1O [paromomycin, reference compound]	MIC	> 64 µg/mL
CC(C)(O)C1O[C@H](O[C@@H]2C(N)C[C@@H](N)C(O)[C@H]2O[C@@H]2O[C@H](CO)[C@H](O[C@H]3O[C@@H](CN)[C@@H](O)C(O)C3N)C2O)C(N)[C@@H](O)[C@@H]1O (stereo partly shown) [Compound 159]	MIC	> 64 µg/mL
CCO[C@@H]1C(CN)O[C@H](O[C@@H]2C(N)C[C@@H](N)C(O)[C@H]2O[C@@H]2O[C@H](CO)[C@H](OCCN)C2O)[C@@H](N)C1O (stereo partly shown) [Compound 073]	MIC	> 128 µg/mL
NCC1O[C@H](O[C@@H]2C(O)[C@H](O[C@@H]3C(O)[C@H](N)CC(N)[C@H]3O[C@H]3OC(CO)[C@@H](CC(O)CO)C(O)[C@@H]3N)O[C@@H]2CO)C(N)C(O)[C@@H]1O (stereo partly shown) [Compound 198]	MIC	16 µg/mL
NC[C@@H]1O[C@H](O[C@@H]2C(O)[C@H](O[C@@H]3C(O)[C@H](N)CC(N)[C@H]3O[C@H]3OC(CO)[C@@H](O)[C@H](O)C3N)O[C@@H]2CNC=O)C(N)C(O)[C@@H]1O (stereo partly shown) [Compound 137, acetate salt]	MIC	> 64 µg/mL
NCC1O[C@H](O[C@@H]2C(O)[C@H](O[C@@H]3C(O)[C@H](N)CC(N)[C@H]3O[C@H]3OC(CO)[C@@H](CCCO)C(O)[C@@H]3N)O[C@@H]2CO)C(N)C(O)[C@@H]1O (stereo partly shown) [Compound 195]	MIC	64 µg/mL
CCC[C@@H]1C(CNCCO)O[C@H](O[C@@H]2C(N)C[C@@H](N)C(O)[C@H]2O[C@@H]2O[C@H](CNCCO)[C@H](O[C@H]3OC(CN)[C@@H](O)C(O)C3N)C2O)[C@@H](N)C1O (stereo partly shown) [Compound 193]	MIC	> 64 µg/mL
NCC1O[C@H](O[C@@H]2C(N)C[C@@H](N)C(O)[C@H]2O[C@@H]2O[C@H](CO)[C@H](F)C2O)[C@@H](N)C(O)[C@@H]1O (stereo partly shown) [Compound 093]	MIC	> 64 µg/mL
NCC1O[C@H](O[C@@H]2C(O)[C@H](O[C@@H]3C(O)[C@H](N)CC(N)[C@H]3O[C@H]3OC(CO)[C@@H](CCO)C(O)[C@@H]3N)O[C@@H]2CO)C(N)C(O)[C@@H]1O (stereo partly shown) [Compound 197]	MIC	32 µg/mL
NCC1OC(OC2C(CO)OC(OC3C(O)C(N)CC(N)C3OC3OC(CN)C(O)C(O)C3NC=O)C2O)C(N)C(O)C1O (stereo not shown) [Compound 182, 2′-N-Formamido-neomycin]	MIC	> 64 µg/mL
NC[C@@H]1O[C@H](O[C@@H]2C(O)[C@H](O[C@@H]3C(O)[C@H](N)CC(N)[C@H]3O[C@H]3OC4C(O)CCCO[C@H]4[C@H](O)C3N)O[C@@H]2CO)C(N)C(O)[C@@H]1O (stereo partly shown) [Compound 199]	MIC	> 32 µg/mL
CC(=O)NC[C@H]1O[C@@H](O[C@@H]2C(O)[C@H](N)CC(N)[C@H]2O[C@H]2OC(CO)[C@@H](O)[C@H](O)C2N)C(O)[C@H]1O[C@H]1O[C@@H](CN)[C@@H](O)C(O)C1N (stereo partly shown) [Compound 165]	MIC	> 64 µg/mL
NCC1OC(OC2C(CNC=O)OC(OC3C(O)C(N)CC(N)C3OC3OC(CO)C(O)CC3N)C2O)C(N)C(O)C1O (stereo not shown) [Compound 153, 3′,5″-Dideoxy-5″-formamido-paromomycin]	MIC	8 µg/mL
CCC[C@@H]1C(CO)O[C@H](O[C@@H]2C(N)C[C@@H](N)C(O)[C@H]2O[C@@H]2O[C@H](CO)[C@H](O[C@H]3OC(CN)[C@@H](O)C(O)C3N)C2O)[C@@H](N)C1O (stereo partly shown) [Compound 079]	MIC	4 µg/mL
CCNC1C(OC2C(N)CC(N)C(O)C2OC2OC(CO)C(OC3OC(CN)C(O)C(O)C3N)C2O)OC(CO)C(O)C1O (stereo not shown) [Compound 127]	MIC	> 64 µg/mL
